Entries annotated with measured AC50
# target_under_test: 5-hydroxytryptamine receptor 2B (Homo sapiens); note: assay procedure not described here
# Sequence (P41595 whole entry): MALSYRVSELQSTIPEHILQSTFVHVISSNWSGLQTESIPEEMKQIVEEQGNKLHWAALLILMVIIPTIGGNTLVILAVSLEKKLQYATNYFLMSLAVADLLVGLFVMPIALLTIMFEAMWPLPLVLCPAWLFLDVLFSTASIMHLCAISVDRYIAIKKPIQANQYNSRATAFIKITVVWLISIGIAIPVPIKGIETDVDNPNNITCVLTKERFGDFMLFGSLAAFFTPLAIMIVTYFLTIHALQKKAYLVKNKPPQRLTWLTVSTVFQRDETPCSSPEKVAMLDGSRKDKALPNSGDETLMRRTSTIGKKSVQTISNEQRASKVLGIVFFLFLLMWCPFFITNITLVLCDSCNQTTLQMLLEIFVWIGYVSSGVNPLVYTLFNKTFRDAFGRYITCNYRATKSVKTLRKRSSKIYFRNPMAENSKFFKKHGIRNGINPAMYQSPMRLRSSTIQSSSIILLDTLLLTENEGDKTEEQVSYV

Answered examples (3):
O=C1Cc2cc(CCN3CCN(c4nsc5ccccc45)CC3)c(Cl)cc2N1 [ZIPRASIDONE]: 0.0137 µM
C[C@@H]1C[C@H]2[C@@H]3C[C@H](F)C4=CC(=O)C=C[C@]4(C)[C@@]3(F)[C@@H](O)C[C@]2(C)[C@@]1(OC(=O)c1ccco1)C(=O)SCF [FLUTICASONE FUROATE]: > 10 µM
CC[C@H](C)C(=O)O[C@H]1C[C@@H](C)C=C2C=C[C@H](C)[C@H](CC[C@@H]3C[C@@H](O)CC(=O)O3)[C@H]21 [LOVASTATIN]: > 10 µM

Prompt: Retrieve AC50 on 5-hydroxytryptamine receptor 2B (Homo sapiens); query CC(C)[C@H](N)C(=O)OCCOCn1cnc2c(=O)[nH]c(N)nc21 [VALACYCLOVIR]
Response: > 10 µM
